Kd reference
Biological target: T1, Human VSIG4-L-His (human, UniProt Q9Y279 20-283)
T1 construct: long isoform ECD with His tag; also called hVSIG4-L
T1 sequence: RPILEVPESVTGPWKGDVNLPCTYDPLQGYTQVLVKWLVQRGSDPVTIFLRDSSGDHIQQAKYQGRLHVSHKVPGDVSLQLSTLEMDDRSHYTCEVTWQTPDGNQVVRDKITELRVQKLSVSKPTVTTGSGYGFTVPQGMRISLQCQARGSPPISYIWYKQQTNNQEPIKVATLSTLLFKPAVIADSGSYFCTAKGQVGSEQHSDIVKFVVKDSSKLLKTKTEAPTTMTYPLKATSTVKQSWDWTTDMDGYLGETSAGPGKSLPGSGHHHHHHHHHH
Assay: BLI (Octet), IgG on AHC sensor, antigen 100 nM
The figure you give is taken to be in nM; do not add the unit.

Illustrative cases are given below, each with its answer.
binder: 15C04 mouse/human chimeric IgG4 (S228P) kappa (antibody, V domains shown) VH: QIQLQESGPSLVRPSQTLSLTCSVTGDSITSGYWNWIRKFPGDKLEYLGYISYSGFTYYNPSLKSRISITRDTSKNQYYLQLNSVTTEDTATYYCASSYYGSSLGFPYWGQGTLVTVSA VL: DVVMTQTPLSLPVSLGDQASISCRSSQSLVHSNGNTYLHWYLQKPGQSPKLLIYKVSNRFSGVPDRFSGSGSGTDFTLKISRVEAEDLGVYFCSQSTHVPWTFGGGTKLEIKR
Kd (nM): 25.4
//
binder: 13H11 mouse/human chimeric IgG4 (S228P) kappa (antibody, V domains shown) VH: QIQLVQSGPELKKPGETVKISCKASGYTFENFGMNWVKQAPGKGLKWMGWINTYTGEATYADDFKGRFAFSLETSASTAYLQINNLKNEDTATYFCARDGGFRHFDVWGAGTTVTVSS VL: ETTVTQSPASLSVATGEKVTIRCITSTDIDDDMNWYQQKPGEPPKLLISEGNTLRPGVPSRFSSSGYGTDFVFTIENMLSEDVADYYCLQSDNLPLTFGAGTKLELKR
Kd (nM): 50.6

I would be grateful if you could share the reported Kd for 16E03 mouse/human chimeric IgG4 (S228P) kappa (antibody, V domains shown) VH: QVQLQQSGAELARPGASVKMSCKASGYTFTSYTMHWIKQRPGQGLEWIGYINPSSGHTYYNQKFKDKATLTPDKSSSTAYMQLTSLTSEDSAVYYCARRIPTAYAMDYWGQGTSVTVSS VL: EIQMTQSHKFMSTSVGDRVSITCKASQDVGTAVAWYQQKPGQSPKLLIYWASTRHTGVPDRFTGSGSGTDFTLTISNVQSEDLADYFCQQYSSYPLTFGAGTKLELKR .
49.3
